Assay: in vitro
Conditions: human
MEASURED_ENDPOINT: CC50

Worked cases, answers included:
{"SMILES_STRING": "O=c1ccn(C/C=C/c2ccccc2)c(=O)n1Cc1cccc2ccccc12", "CC50": "≥ 100 µM"}
{"SMILES_STRING": "O=c1ccn(C/C=C/c2ccccc2)c(=O)n1Cc1cc(Cl)cc(Cl)c1", "CC50": "≥ 100 µM"}

Below: the item to evaluate.
Record Cc1cc(Br)cc(Cn2c(=O)ccn(C/C=C/c3ccccc3)c2=O)c1 . Reported CC50: ≥ 100 µM
